Target: Estrogen receptor (Mus musculus) (UniProt O08537+P19785)
Sequence (O08537 whole entry, looked up): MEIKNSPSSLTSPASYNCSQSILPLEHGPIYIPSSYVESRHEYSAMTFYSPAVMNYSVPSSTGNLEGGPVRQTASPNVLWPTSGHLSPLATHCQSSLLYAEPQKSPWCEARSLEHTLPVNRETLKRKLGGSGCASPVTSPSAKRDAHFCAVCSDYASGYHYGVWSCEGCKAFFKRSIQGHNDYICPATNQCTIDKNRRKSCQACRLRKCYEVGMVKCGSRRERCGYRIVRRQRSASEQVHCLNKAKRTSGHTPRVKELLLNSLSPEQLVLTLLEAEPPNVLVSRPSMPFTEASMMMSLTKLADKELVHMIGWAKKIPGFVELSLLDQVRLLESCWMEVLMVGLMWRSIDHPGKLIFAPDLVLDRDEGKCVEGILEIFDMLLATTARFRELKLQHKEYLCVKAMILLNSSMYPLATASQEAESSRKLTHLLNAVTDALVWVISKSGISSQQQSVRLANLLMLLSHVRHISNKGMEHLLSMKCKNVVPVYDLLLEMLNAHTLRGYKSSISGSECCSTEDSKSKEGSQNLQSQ
Sequence (P19785 whole entry, looked up): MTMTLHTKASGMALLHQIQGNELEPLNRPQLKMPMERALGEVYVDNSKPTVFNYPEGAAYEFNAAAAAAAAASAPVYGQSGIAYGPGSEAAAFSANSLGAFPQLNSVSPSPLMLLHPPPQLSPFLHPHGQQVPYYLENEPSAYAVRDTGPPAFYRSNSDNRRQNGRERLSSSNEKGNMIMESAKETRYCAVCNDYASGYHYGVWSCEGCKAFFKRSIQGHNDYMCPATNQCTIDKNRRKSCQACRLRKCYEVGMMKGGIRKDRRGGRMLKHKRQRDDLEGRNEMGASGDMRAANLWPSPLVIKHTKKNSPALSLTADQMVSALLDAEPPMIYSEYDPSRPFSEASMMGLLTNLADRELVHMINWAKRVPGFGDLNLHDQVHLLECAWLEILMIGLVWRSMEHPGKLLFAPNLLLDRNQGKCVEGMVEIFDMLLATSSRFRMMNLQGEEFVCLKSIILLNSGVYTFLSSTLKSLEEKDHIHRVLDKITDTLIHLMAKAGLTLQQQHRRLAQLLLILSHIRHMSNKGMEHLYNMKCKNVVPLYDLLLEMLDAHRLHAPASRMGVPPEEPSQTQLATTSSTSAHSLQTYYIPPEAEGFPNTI
Assay: Uterotrophic effect in mice at 100 ug
Type: functional, tissue-based
Conditions: Uterus
valueType: Effect
Output: the number by itself.

Entry `CC(C)(c1ccc(O)cc1Cl)C(C)(C)c1ccc(O)cc1Cl` , system Estrogen receptor (Mus musculus) (UniProt O08537+P19785): what Effect was measured?
32.7

# get_value(readout= Effect, system= Estrogen receptor (Mus musculus) (UniProt O08537+P19785)) for `Cc1cc(O)ccc1C(C)(C)C(C)(C)c1ccc(O)cc1C`
28

API: value(readout= Effect, system= Estrogen receptor (Mus musculus) (UniProt O08537+P19785), query= `CC(C)(c1cc(O)ccc1Cl)C(C)(C)c1cc(O)ccc1Cl` )
33

For Estrogen receptor (Mus musculus) (UniProt O08537+P19785), provide Effect of `CC(C)(c1ccc(O)cc1F)C(C)(C)c1ccc(O)cc1F` please.
42.6

So what Effect did `CC(C)(c1cc(O)ccc1F)C(C)(C)c1cc(O)ccc1F` get with Estrogen receptor (Mus musculus) (UniProt O08537+P19785)?
22.6

====

Target: Estrogen receptor (Mus musculus) (UniProt O08537+P19785)
Assay: Anti-uterotrophic effect in mice at 500 ug
Type: functional
Please respond with reported Effect for every item in the list.

Requested field: Effect. Item: `Cc1cc(O)ccc1C(C)(C)C(C)(C)c1ccc(O)cc1C`
37.3

State the recorded Effect for this entry: `CC(C)(c1cc(O)ccc1Cl)C(C)(C)c1cc(O)ccc1Cl`
37.8

Using the record for `CC(C)(c1ccc(O)cc1Cl)C(C)(C)c1ccc(O)cc1Cl` , report its Effect.
35.2

Which Effect is listed for `CC(C)(c1cc(O)ccc1F)C(C)(C)c1cc(O)ccc1F` ?
32.5

====

Target: Estrogen receptor (Mus musculus) (UniProt O08537+P19785)
Test: Uterotrophic effect in mice at 1 ug
Format: functional, tissue-based
Conditions: Uterus
Label TRUE when Effect is strictly below 20; at or above that, label FALSE.

I'd appreciate it if you could check whether `CC(C)(c1ccc(O)cc1F)C(C)(C)c1ccc(O)cc1F` has Effect smaller than 20.
FALSE

Confirm or reject: Effect of `CC(C)(c1ccc(O)cc1Cl)C(C)(C)c1ccc(O)cc1Cl` lies strictly below 20
FALSE

I'd appreciate it if you could check whether `CC(C)(c1cc(O)ccc1F)C(C)(C)c1cc(O)ccc1F` has Effect smaller than 20.
TRUE

A record lists `CC(C)(c1cc(O)ccc1Cl)C(C)(C)c1cc(O)ccc1Cl` . Is its Effect below 20?
TRUE

Record `Cc1cc(O)ccc1C(C)(C)C(C)(C)c1ccc(O)cc1C` : is its Effect strictly below 20?
TRUE

====

Provide the recorded Effect for the entries that follow.
Target: Estrogen receptor (Mus musculus) (UniProt O08537+P19785)
Assay: Uterotrophic effect in mice at 0 ug
Type: functional, tissue-based
Settings: Uterus

Suppose we examine the compound `CC(C)(c1cccc(O)c1)C(C)(C)c1cccc(O)c1` ; what Effect value has been reported?
9.2

Would you kindly share the measured Effect for `CC(C)(c1cc(O)ccc1Cl)C(C)(C)c1cc(O)ccc1Cl` ?
11.1

Sample `Cc1cc(O)ccc1C(C)(C)C(C)(C)c1ccc(O)cc1C` — what was its Effect?
11.1

Effect for `CC(C)(c1ccc(O)cc1Cl)C(C)(C)c1ccc(O)cc1Cl` ?
13.7

Look up Effect: `CC(C)(c1ccc(O)cc1)C(C)(C)c1ccc(O)cc1`
9.2

Give its Effect value. Item: `CC(C)(c1cc(O)ccc1F)C(C)(C)c1cc(O)ccc1F`
9.7

Which Effect is listed for `CC(C)(c1ccc(O)cc1F)C(C)(C)c1ccc(O)cc1F` ?
16.4

All figures here come from ChEMBL document CHEMBL1123042.
